- Target desc: P-glycoprotein (Homo sapiens, UniProt P08183)
- Sequence (P08183 whole entry): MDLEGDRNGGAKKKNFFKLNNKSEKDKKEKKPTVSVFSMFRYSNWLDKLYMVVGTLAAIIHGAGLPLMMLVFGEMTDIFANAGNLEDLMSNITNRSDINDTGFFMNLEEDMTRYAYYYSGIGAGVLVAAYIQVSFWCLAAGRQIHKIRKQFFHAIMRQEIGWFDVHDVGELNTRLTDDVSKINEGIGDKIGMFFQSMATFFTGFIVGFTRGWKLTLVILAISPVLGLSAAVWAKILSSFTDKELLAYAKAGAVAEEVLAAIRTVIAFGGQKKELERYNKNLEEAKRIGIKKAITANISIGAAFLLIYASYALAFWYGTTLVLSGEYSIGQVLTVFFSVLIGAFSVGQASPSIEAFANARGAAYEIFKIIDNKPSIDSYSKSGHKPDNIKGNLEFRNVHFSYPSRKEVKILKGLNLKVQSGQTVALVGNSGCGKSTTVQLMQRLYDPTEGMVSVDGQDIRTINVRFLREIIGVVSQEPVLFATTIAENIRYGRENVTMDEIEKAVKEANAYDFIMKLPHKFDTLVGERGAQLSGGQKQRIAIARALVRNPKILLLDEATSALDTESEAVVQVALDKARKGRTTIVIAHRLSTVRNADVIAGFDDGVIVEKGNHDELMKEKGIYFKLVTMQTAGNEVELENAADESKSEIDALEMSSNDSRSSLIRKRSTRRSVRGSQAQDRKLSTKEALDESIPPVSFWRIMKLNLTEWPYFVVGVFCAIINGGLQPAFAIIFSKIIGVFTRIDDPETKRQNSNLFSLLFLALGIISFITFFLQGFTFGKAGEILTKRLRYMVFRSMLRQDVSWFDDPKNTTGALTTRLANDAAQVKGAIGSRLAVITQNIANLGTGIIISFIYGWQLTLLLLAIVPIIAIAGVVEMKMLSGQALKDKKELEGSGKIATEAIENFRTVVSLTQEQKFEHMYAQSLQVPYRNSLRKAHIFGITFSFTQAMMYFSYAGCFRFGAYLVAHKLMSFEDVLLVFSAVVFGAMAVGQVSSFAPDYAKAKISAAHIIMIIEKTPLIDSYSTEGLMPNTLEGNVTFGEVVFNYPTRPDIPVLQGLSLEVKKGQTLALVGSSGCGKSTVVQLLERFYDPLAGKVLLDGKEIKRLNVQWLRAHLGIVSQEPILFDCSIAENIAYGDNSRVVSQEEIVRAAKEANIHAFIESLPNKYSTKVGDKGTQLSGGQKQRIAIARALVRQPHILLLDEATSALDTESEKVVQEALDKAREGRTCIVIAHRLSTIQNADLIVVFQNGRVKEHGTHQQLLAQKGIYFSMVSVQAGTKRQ
- Type: binding
- Test context: human, pH 7.5
Metric: inhibition at 20 μM

Look over these answered cases.
* CCOC(=O)c1csc([C@@H](N)C(C)C)n1 | < 10%
* CC(C)[C@H](N)c1nc(C(=O)O)cs1 | < 10%
* CC(C)[C@H](NC(=O)OC(C)(C)C)c1nc(C(=O)O)cs1 | < 10%
* CCOC(=O)c1csc([C@@H](NC(=O)c2csc([C@@H](NC(=O)OC(C)(C)C)C(C)C)n2)C(C)C)n1 | 87%

Entry "CCOC(=O)c1csc([C@@H](NC(=O)c2csc([C@@H](N)C(C)C)n2)C(C)C)n1" has what inhibition at 20 μM?
87%

// next record "CCOC(=O)c1csc([C@@H](NC(=O)OC(C)(C)C)C(C)C)n1"
20%

// next record "CC(C)[C@H](N)c1nc(C(=O)N[C@H](c2nc(C(=O)O)cs2)C(C)C)cs1"
23%

// next record "CC(C)[C@H](NC(=O)OC(C)(C)C)c1nc(C(=O)N[C@H](c2nc(C(=O)O)cs2)C(C)C)cs1"
< 10%

====

- Target desc: P-glycoprotein (Homo sapiens, UniProt P08183)
- Assay type: binding
- Test context: human, pH 7.5
Metric: inhibition at 10 μM (%)
Just the number please, in %, no unit attached.

Look over these answered cases.
* CC(C)[C@H](NC(=O)OC(C)(C)C)c1nc(C(=O)N[C@H](c2nc(C(=O)N[C@H](c3nc(C(=O)O)cs3)C(C)C)cs2)C(C)C)cs1 | 60
* CCOC(=O)c1csc([C@@H](NC(=O)c2csc([C@@H](NC(=O)c3csc([C@@H](N)C(C)C)n3)C(C)C)n2)C(C)C)n1 | 91
* CCOC(=O)c1csc([C@@H](NC(=O)c2csc([C@@H](NC(=O)c3csc([C@@H](NC(=O)c4csc([C@@H](NC(=O)OC(C)(C)C)C(C)C)n4)C(C)C)n3)C(C)C)n2)C(C)C)n1 | 99
* CCOC(=O)c1csc([C@@H](NC(=O)c2csc([C@@H](NC(=O)c3csc([C@@H](NC(=O)OC(C)(C)C)C(C)C)n3)C(C)C)n2)C(C)C)n1 | 91

Below: the item to evaluate.
Report inhibition at 10 μM for "COc1ccc(CNC(=O)c2csc([C@@H](NC(=O)c3csc([C@@H](NC(=O)OC(C)(C)C)C(C)C)n3)C(C)C)n2)c(OC)c1" tested on P-glycoprotein (Homo sapiens, UniProt P08183).
95
